// reported GI50 for each item listed
test system: HL-60(TB); assay: Anticancer activity against Homo sapiens (human) HL-60(TB) cells after 48 hr by SRB assay; assay type: functional; settings: HL-60, 48 h
PROPERTY: GI50 (µM)

INSERT INTO assay_data (item_smiles, unit, qualifier_symbol, numeric_readout) VALUES
  ('COc1ccc(OC)c(/C=C/C(=O)N/N=C/c2ccccc2)c1', 'µM', '=', 2.03),
  ('COc1ccc(OC)c(/C=C/c2nnc(Nc3ccc(Cl)cc3)o2)c1', 'µM', '>', 100),
  ('COc1ccc(OC)c(/C=C/c2nnc(S)n2-c2ccc(Cl)cc2)c1', 'µM', '=', 3.57),
  ('COc1ccc(OC)c(/C=C/C(=O)N/N=C/c2ccc(Cl)cc2)c1', 'µM', '=', 0.0785);
